Molecular target: T1, human ROR1 extracellular domain (ECD) protein (human, UniProt Q01973 30-406)
T1 construct: also called hROR1-ECD; human ROR1-ECD
T1 sequence (Q01973 30-406 limits assumed): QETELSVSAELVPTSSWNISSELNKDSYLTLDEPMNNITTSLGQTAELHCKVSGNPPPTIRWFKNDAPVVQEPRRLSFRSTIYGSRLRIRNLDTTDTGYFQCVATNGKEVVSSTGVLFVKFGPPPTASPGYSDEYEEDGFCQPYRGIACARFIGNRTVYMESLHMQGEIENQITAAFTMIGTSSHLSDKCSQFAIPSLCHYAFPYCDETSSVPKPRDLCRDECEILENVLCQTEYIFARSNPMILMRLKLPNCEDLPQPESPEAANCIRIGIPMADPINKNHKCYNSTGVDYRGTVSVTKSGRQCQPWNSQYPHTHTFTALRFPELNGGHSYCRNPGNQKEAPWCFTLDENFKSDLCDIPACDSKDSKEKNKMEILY
Experiment: competitive phage ELISA: soluble ROR1 against ROR1-coated plate
Measured IC50 by item
The reply should contain only the number, in nM.

Hello, please tell me recorded IC50 for this one: P601-108 (scFv, V domains shown) VH: QLQLQESGPGLVKPSETLSLTCTVSGGSISSNSYYWGWIRQPPGKGLEWIGSIYYSGSTYYNPSLKSRVTISVDTSKNQFSLKLGSVTAADTAVYYCARHDGTDAFDIWGQGTTVTVSS VL: QSVVTQPPSVSAAPGQKVTISCSGSSSNIGKNYVSWYQQFPGTAPKLLIYDNNERPSGIPARFSGSKSGTSATLGITGLQTGDEADYYCATFDTSLWAAVFGGGTKLTVL
0.76

Hello, please tell me recorded IC50 for this one: P601-86 (scFv, V domains shown) VH: QVTLKESGPTLLKPTQTLTLTCTFSGFSLSTRGVGVGWIRQPPGQALEWLTLIYWDDDKRYSPSLKSRLTITKDTSKNQVVLTMTNMESVDTATYYCAQQTMTGAFDIWGQGTTVTVSS VL: DIQMTQSPSSVSASVGDRVTITCRASQGISTLLAWYQQKPGKAPKLLISSASSLQSGVPARFSGSGSGTDFTLTISSLQPEDFATYYCQQSYRAPTFGQGTKVEIKR
1.84

Hello, please tell me recorded IC50 for this one: P601-81 (scFv, V domains shown) VH: EVQLVESGGGVVRPGGSLRLSCATSGFNFDNYGLSWVRQGPGKGLEWMGFIYKSVNTNYSPSLKSRLTISMDTSKNQFSLNLASVTTADTAIYYCARGKVETSVVDYWGQGTLVTVSS VL: NFMLTQPRSVSESPGKTVTISCTGNGGRVANNYVQWYQQRPGSAPTTVIYEDNQRPSGVPARFSGSIDSSSNSASLTISGLKTDDEADYYCQSYDISNQRVFGGGTKLTVL
2.76
